Biological target: Serine/threonine-protein kinase B-raf (Homo sapiens, UniProt P15056)
Sequence (P15056 whole entry): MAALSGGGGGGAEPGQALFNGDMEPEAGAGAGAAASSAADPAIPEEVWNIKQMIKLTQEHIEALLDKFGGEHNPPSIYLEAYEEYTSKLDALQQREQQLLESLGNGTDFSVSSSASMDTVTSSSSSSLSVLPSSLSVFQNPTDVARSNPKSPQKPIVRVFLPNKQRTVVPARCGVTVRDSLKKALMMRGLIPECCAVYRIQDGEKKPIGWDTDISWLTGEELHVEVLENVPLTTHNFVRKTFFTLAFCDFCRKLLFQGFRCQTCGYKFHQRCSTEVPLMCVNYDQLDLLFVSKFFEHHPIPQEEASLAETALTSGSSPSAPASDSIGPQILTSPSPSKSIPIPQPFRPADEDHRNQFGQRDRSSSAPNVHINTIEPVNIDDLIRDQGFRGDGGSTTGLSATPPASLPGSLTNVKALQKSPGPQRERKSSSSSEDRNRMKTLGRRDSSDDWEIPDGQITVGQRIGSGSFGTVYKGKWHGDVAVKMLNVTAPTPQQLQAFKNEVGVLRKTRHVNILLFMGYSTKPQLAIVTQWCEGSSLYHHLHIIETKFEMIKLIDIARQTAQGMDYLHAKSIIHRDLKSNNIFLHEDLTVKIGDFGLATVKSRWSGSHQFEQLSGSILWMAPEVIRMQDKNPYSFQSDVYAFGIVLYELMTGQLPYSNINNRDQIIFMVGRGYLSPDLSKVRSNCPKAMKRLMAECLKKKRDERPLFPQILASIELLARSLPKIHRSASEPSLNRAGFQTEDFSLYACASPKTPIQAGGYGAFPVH
Assay: Inhibition of N-terminal GST-tagged recombinant human B-Raf ([…] residues) expressed in baculovirus infected Sf21 insect cells using MEK1 as substrate preincubated for 5 mins followed by substrate addition measured after 30 mins by DELFIA
pIC50: −log10 of the molar value.
endpoint.name: pIC50

QUERY: Which pIC50 is reported for this molecule? O=C(CCCCCNC(=O)c1cc(Oc2ccc(NC(=O)Nc3ccc(Cl)c(C(F)(F)F)c3)cc2)ccn1)NO
RESULT: 5.00 to 6.00

###

Biological target: Platelet-derived growth factor receptor beta (Homo sapiens, UniProt P09619)
Sequence (P09619 whole entry, the tested form may be a part): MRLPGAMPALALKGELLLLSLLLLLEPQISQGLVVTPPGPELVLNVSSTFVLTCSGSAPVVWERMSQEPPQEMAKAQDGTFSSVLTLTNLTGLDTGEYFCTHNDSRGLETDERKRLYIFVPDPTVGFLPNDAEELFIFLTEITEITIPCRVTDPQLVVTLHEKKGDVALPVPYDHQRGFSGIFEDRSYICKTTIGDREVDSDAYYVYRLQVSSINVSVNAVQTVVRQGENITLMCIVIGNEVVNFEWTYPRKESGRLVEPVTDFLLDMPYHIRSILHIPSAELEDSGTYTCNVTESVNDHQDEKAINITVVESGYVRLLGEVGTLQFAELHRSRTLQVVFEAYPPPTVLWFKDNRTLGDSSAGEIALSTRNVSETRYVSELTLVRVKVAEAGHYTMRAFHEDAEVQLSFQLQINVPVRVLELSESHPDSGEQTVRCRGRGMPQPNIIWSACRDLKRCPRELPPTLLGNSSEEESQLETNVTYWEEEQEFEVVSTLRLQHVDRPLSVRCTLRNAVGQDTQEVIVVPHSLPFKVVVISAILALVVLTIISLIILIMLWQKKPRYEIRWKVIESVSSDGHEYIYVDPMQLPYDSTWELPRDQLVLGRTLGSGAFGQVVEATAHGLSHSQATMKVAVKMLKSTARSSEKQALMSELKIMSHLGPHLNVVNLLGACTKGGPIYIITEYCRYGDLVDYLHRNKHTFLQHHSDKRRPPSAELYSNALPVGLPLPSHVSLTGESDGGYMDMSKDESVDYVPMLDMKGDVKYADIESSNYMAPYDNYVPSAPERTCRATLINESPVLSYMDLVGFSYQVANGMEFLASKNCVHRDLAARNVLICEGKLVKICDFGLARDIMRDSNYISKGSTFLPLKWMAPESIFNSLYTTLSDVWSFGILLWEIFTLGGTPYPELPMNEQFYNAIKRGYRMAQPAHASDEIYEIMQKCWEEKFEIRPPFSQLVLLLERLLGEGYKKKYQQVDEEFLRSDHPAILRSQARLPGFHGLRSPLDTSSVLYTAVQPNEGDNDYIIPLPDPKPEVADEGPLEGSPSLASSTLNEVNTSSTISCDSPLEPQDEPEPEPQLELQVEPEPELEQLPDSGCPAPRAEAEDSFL
Assay: Inhibition of N-terminal GST-His6-thrombin cleavage site-fused human PDGFRbeta (Arg561 to Leu1106 residues) assessed as decrease in biotinylated FLT3 phosphorylation at Tyr589 preincubated for 5 mins followed by substrate addition measured after 30 mins by DELFIA method
endpoint.name: IC50

QUERY: Please provide the recorded IC50 for O=C(CCCCCNC(=O)c1cc(Oc2ccc(NC(=O)Nc3ccc(Cl)c(C(F)(F)F)c3)cc2)ccn1)NO , tested on Platelet-derived growth factor receptor beta (Homo sapiens, UniProt P09619).
RESULT: 100 to 1000 nM

QUERY: Field: IC50 (Platelet-derived growth factor receptor beta (Homo sapiens, UniProt P09619)). Entry: O=C(CCCCCCCNC(=O)c1cc(Oc2ccc(NC(=O)Nc3ccc(Cl)c(C(F)(F)F)c3)cc2)ccn1)NO
RESULT: 100 to 1000 nM

QUERY: Param readout= IC50; system= Platelet-derived growth factor receptor beta (Homo sapiens, UniProt P09619); entry= Cc1nc(Nc2ncc(C(=O)Nc3c(C)cccc3Cl)s2)cc(N2CCN(CCCCCC(=O)NO)CC2)n1 ; returns value.
RESULT: ≤ 100 nM

QUERY: Entry Cc1[nH]c(/C=C2\C(=O)Nc3ccc(F)cc32)c(C)c1C(=O)NCCCC(=O)NO , system Platelet-derived growth factor receptor beta (Homo sapiens, UniProt P09619): what IC50 was measured?
RESULT: ≤ 100 nM

QUERY: // map Cc1nc(NCCCCCC(=O)NO)cc(Nc2ncc(C(=O)Nc3c(C)cccc3Cl)s2)n1 to recorded IC50 (system: Platelet-derived growth factor receptor beta (Homo sapiens, UniProt P09619))
RESULT: ≤ 100 nM

QUERY: Form field: IC50 recorded for Cc1nc(Nc2ncc(C(=O)Nc3c(C)cccc3Cl)s2)cc(N2CCN(CCCCC(=O)NO)CC2)n1 with Platelet-derived growth factor receptor beta (Homo sapiens, UniProt P09619) (enter value)
RESULT: ≤ 100 nM

QUERY: Requested read-out IC50, target or system Platelet-derived growth factor receptor beta (Homo sapiens, UniProt P09619), entry Cc1nc(Nc2ncc(C(=O)Nc3c(C)cccc3Cl)s2)cc(N2CCN(CC(=O)NO)CC2)n1
RESULT: ≤ 100 nM

QUERY: Query for Platelet-derived growth factor receptor beta (Homo sapiens, UniProt P09619): what IC50 does the record show for Cc1[nH]c(/C=C2\C(=O)Nc3ccc(F)cc32)c(C)c1C(=O)NCCCCCCC(=O)NO ?
RESULT: 100 to 1000 nM

QUERY: Provide the documented IC50 with Platelet-derived growth factor receptor beta (Homo sapiens, UniProt P09619) as the system for Cc1[nH]c(/C=C2\C(=O)Nc3ccc(F)cc32)c(C)c1C(=O)NCCCCCCCC(=O)NO
RESULT: 100 to 1000 nM

QUERY: Item Cc1nc(Nc2ncc(C(=O)Nc3c(C)cccc3Cl)s2)cc(N2CCN(CCCCCCC(=O)NO)CC2)n1 with Platelet-derived growth factor receptor beta (Homo sapiens, UniProt P09619) - IC50?
RESULT: ≤ 100 nM

QUERY: Provide value of IC50 for this record tested with Platelet-derived growth factor receptor beta (Homo sapiens, UniProt P09619): O=C(CCCCCCC(=O)NCc1cc(Oc2ccc(NC(=O)Nc3ccc(Cl)c(C(F)(F)F)c3)cc2)ccn1)NO
RESULT: 100 to 1000 nM

QUERY: API: value(readout= IC50, system= Platelet-derived growth factor receptor beta (Homo sapiens, UniProt P09619), query= Cc1nc(NCCCCCCC(=O)NO)cc(Nc2ncc(C(=O)Nc3c(C)cccc3Cl)s2)n1 )
RESULT: ≤ 100 nM

QUERY: Look up IC50 with Platelet-derived growth factor receptor beta (Homo sapiens, UniProt P09619) for this compound: Cc1[nH]c(/C=C2\C(=O)Nc3ccc(F)cc32)c(C)c1C(=O)NCCCCCC(=O)NO
RESULT: ≤ 100 nM

QUERY: # get_value(readout= IC50, system= Platelet-derived growth factor receptor beta (Homo sapiens, UniProt P09619)) for O=C(CCCCC(=O)NCc1cc(Oc2ccc(NC(=O)Nc3ccc(Cl)c(C(F)(F)F)c3)cc2)ccn1)NO
RESULT: 100 to 1000 nM
